# system tested: T1, AAV9
# T1 construct: also called adeno-associated virus serotype 9
# experiment summary: SPR, AAV on CM5 chip;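 further: surface plasmon resonance with AAV amine-coupled to the chip as ligand, nanobodies injected as analyte over a concentration series, rate constants and affinity fitted from binding curves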
measurement label: koff (s⁻¹)
Give the quantity in s⁻¹, number only.

In the examples that follow, each entry is paired with its recorded koff.
A4-025 (VHH) VHH: VQLQESGGGLVQPGGSLRLSCAASGSNFRINTMGWYRQAPGKQRELVATVTRGGSTNYADSVKGRFTISRDNPKDTVYLQMNSLRPEDTAVYYCHVDEVRESSWTTSNLWGQGTQVTVSS ... 0.00012
A4-050 (VHH) VHH: VQLQESGGGLVQPGGSLRLSCAASGSSFVINTMGWYRQAPGKQRELVAAVTRGGSTNYADSVKGRFTISRDNAKNTVYLQMNSLRPEDTAVYYCHVDEVRQSSWTTSNLWGQGTQVTVSS ... 0.00049
A4-031 (VHH) VHH: VQLQESGGGLVQPGGSLRLSCAASGSGFSINTMGWYRQAPGKQRELVATVTSAGSTNYAGSVKGRFTISRDNAKNTVYLQMNSLRPEDTAVYYCHVDEIRQSSWTTSNLWGQGTQVTVSS ... 0.00824

## Task Look up koff of A4-036 (VHH) VHH: VQLQESGGGLAQAGGSLRLSCAASGRGFSINTMGWYRQAPGKQRELVAAVTRGGTTNYADSVKGRFTISRDNAKNTVYLQMNSLRPEDTAVYYCHVDEVRQSSWTTSNLWGQGTQVTVSS and report it.
## Result 0.00944
